# Tested on: NEK3
measured parameter: pKd
Please note pKd is a logarithmic value: minus log10 of concentration in mol/L. Answer with that number alone.

Prompt: Indicate its recorded pKd; the compound in question is O=C(O)COc1ncnc2cc(-c3ccc4[nH]ncc4c3)sc12
Response: 6.68

----------
Please provide measured Kd for the entries that follow.
Numbers only here, please. The scale is nM.

Prompt: Please tell me the measured Kd for Cl.O=C(Nc1cccc(-c2nn3ncccc3c2-c2ccnc(Nc3cccnc3)n2)c1)c1c(F)cccc1F ; system: DDR1.
Response: 140

Prompt: Output reported Kd of the compound COC(=O)c1c(-c2ccccc2)c2cc(OC)ccc2c(=O)n1Cc1ccccc1 on DDR1.
Response: 280

Prompt: GET Kd | system: DDR1 | item: Cc1ccc(NC(=O)Nc2cccc(Cl)c2)cc1-c1ccc(C(=O)Nc2ccncc2)cc1
Response: 76

Prompt: Please tell me the measured Kd for Cc1cccc(-c2nc(-c3ccc(S(C)(=O)=O)cc3)sc2-c2ccnc(NCCc3ccccc3)c2)c1 ; system: DDR1.
Response: 230

----------
For each record, write down the corresponding %Inh.
# Test system: STK39
# recorded conditions: concentration: 1 μM, replicates: in singlicate; n = 1
Give the figure together with its unit, number first.

Prompt: Provide only the value of recorded %Inh for Cc1cc(NCC(c2ccccc2)c2ccccc2)nc(NCc2ccc(C(F)(F)F)cc2)n1
Response: 0%

Prompt: Supply measured %Inh of COc1ccc(CNC(=O)NC2CCN(c3ccnc(Nc4cc(OC)c(OC)c(OC)c4)n3)C2)cc1 (stereo not drawn) in your reply.
Response: 1%

Prompt: Please look at this compound and report its %Inh: Cc1cccc(-c2nc(C)cc(Nc3ccncc3)n2)n1
Response: 0%

Prompt: Consider the compound CS(=O)(=O)c1ccc(-c2c(-c3ncn[nH]3)sc(N3CCOCC3)c2C#N)cc1 . State its measured %Inh.
Response: 0%

Prompt: Report measured %Inh; entry is O=C1NC(=O)C(N2CCc3ccccc32)=C1c1ccccc1Cl
Response: 7%

Prompt: Return reported %Inh. Input compound: Fc1cccc(COc2nnc(-c3ccc4c(c3)CCO4)o2)c1
Response: 0%

Prompt: State its %Inh: Fc1cc(Cl)ccc1Nc1ccnc2cc(I)ccc12
Response: 15%

Prompt: Specify measured %Inh for COc1cc(Nc2nccc(N3CCC(NC(=O)Nc4cc(C)ccc4C)C3)n2)cc(OC)c1OC (stereo not drawn) .
Response: 16%

Prompt: Dear colleague, please send me the reported %Inh for Cn1ccc2ncnc(Oc3cccc(C(=O)Nc4ccccc4)c3)c21 when you can.
Response: 0%

----------
Would you mind telling me the reported %Inh of each entry?
# System: EPHB2
# recorded conditions: concentration: 1 μM, replicates: in singlicate; n = 1
State just the number; it will be interpreted in %.

Prompt: Return reported %Inh. Input compound: O=C(Nc1n[nH]c2nc(-c3nccs3)c(Br)cc12)C1CCCC1 [SB-742609]
Response: 0

Prompt: Please report the measured %Inh for Cn1ccc2ncnc(Oc3cccc(C(=O)Nc4ccccc4)c3)c21
Response: 0

Prompt: For the compound Cn1ccc2ncnc(Oc3ccc(Nc4nc5ccccc5[nH]4)cc3)c21 , give its measured %Inh value.
Response: 0

Prompt: Supply %Inh value. Item: Fc1cc(Cl)ccc1Nc1ccnc2cc(I)ccc12 [GW551191]
Response: 25

Prompt: Output measured %Inh for this item: COc1cccc(NC(=O)NC2CCN(c3ccnc(Nc4ccc(F)cc4)n3)C2)c1 (stereo not shown) [GSK1379721]
Response: 0

Prompt: For the compound Cc1cccc(-c2nc(Nc3cccc(C(N)=O)c3)c3ccccc3n2)n1 [GW876019] , give its measured %Inh value.
Response: 8

Prompt: Note %Inh for the compound shown: Nc1nc(-c2nccs2)c(-c2ccnc3ccccc23)s1 [GW693542]
Response: 0

Prompt: Give the measured %Inh for CCn1c(-c2cccnc2O)nc2cnccc21 [SB-736715]
Response: 6

Prompt: Return %Inh for the following compound: Cc1cccc(-c2nc(Nc3ccc4[nH]ncc4c3)c3ccccc3n2)n1 [GW857175]
Response: 0

Prompt: Look up and state reported %Inh for Cn1cncc1-c1ccc2ncnc(Nc3ccc(OCc4ccccc4)cc3)c2c1 [GW320571]
Response: 0
